Listing: half-life of selected compounds
measurement-protocol: Half life in BALB/c mouse at 1 mg/kg, iv or 10 mg/kg, po
Type: ADME, organism-based
experimental-conditions: in vivo
# output: bare number, implied unit min

Consider the reported half-life for these compounds:
> print(dat)
                               query.smiles  metric.name  unit.of.measurement  value.measured
1  C=CC(=O)N1CCN(c2nc(=O)n(-c3c(C4CC4)ncnc3C3CC3)c3nc(-c4c(O)cccc4F)c(Cl)cc23)[C@@H](C)C1    half-life                  min              30
2  C=CC(=O)N1CCN(c2nc(=O)n(-c3c(CC)cccc3CC)c3nc(-c4c(O)cccc4F)c(Cl)cc23)[C@@H](C)C1    half-life                  min              30
3  C=CC(=O)N1CCN(c2nc(=O)n(-c3c(C)ccnc3C(C)C)c3nc(-c4c(O)cccc4F)c(F)cc23)[C@@H](C)C1    half-life                  min              30

Challenge: So what does the record say about half-life for `C=CC(=O)N1CCN(c2nc(=O)n(-c3ccccc3C(C)C)c3nc(-c4ccccc4O)c(Cl)cc23)[C@@H](C)C1` ?
Response given: 30

Cited source: ChEMBL document CHEMBL4354832
